- Test system: human red blood cells
- experimentalDetails: Cytotoxicity: hemolysis of human red blood cells
- Type: cell-based
No end group written: not given here.
reportedMetric: Hemolytic activity (% ± SD) at 4 µM (%)
Just the number please, in %, no unit attached.

# example entries with known answers
substance	targetOfAssay	measurementUnits	Hemolytic activity (% ± SD) at 4 µM
GLWSTIKQKGKEAAIAAAKAAGQAALGAL-NH2 [DS01, Dermaseptin DS01, reference compound]	human red blood cells	%	0.17
GSLHGFMYKYLKTLVLRLY-NH2 [Zm01]	human red blood cells	%	0.00
GSLHGFMYKYLKNMVLNLF-NH2 [Tc06]	human red blood cells	%	0.00
GKILKYLLYLLRKYANLIIR-NH2 [Tc02]	human red blood cells	%	0.40
GLYNFIKVLGRTVFGLYKQF-NH2 [At04]	human red blood cells	%	0.00
LHRLVKLVAALLRGYASKVDTH [Tc08]	human red blood cells	%	0.27
GSLHGFMYRYLKNMVLNLF-NH2 [Cs01]	human red blood cells	%	0.01
GLLFKELQKLIRYQIFIGK-NH2 [Tc10]	human red blood cells	%	0.18
GSLHGFMYKYLKNMVLTLF-NH2 [At01]	human red blood cells	%	0.00
GFKLGRKLVKVFKWII-NH2 [Gr01]	human red blood cells	%	0.30

# input Suppose we examine the substance KVLSKVHTLLKAVLAL-NH2 [At02] ; what Hemolytic activity (% ± SD) at 4 µM value has been reported?
# output 0.02

# input Suppose we examine the substance IKLRNVLKYLFRIDVIKEDIL-NH2 [Tc03] ; what Hemolytic activity (% ± SD) at 4 µM value has been reported?
# output 0.00

# input Suppose we examine the substance GFKDLLKGAAKALVKTVLF-NH2 [Asc-8, Ascaphin-8, reference compound] ; what Hemolytic activity (% ± SD) at 4 µM value has been reported?
# output 0.26

# input Suppose we examine the substance IVNHLVKLFDKGLNSIVNLR-NH2 [Tc05] ; what Hemolytic activity (% ± SD) at 4 µM value has been reported?
# output 0.15

# input Suppose we examine the substance ANRLLEAYKMLLKFLGNLR-NH2 [Gr02] ; what Hemolytic activity (% ± SD) at 4 µM value has been reported?
# output 1.23

# input Suppose we examine the substance FFYNVIKIYGNMAGRISK-NH2 [Cs03] ; what Hemolytic activity (% ± SD) at 4 µM value has been reported?
# output 0.01

# input Suppose we examine the substance GAKLAKKQVRALGKFFSF-NH2 [At03] ; what Hemolytic activity (% ± SD) at 4 µM value has been reported?
# output 0.04
